# IC50 annotations
Target System: B-Raf (Homo sapiens)
Sequence (P15056 whole entry): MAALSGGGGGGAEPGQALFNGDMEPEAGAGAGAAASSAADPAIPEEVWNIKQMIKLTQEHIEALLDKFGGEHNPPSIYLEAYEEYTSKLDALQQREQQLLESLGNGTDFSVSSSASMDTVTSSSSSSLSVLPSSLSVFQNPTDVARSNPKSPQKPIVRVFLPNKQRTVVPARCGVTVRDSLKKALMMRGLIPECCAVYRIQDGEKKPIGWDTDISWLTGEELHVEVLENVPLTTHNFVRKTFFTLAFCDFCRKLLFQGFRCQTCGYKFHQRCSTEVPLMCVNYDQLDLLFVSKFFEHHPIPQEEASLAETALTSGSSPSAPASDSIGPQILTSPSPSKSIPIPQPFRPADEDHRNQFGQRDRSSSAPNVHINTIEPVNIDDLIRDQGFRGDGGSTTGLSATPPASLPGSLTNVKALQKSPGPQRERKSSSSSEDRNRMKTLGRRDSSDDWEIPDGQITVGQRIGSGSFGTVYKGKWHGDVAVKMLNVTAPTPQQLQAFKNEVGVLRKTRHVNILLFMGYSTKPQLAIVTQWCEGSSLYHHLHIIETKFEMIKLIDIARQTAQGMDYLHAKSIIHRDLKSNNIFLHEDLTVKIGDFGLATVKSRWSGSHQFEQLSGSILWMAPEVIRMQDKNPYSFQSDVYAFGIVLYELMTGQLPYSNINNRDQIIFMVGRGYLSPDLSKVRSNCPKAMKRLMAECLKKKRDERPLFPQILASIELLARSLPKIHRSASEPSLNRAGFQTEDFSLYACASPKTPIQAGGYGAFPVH
Protocol Details: B-Raf Accelerated MEK ATPase assay (BRAMA)
Assay type: biochemical
Run Parameters: BRAMA enzyme assay; class by pIC50; read-out: B-Raf Activity

>>> print(df.to_string())
                                   compound  measured_attribute  measured_value
0  CCNc1nc(-c2cc(OC)cc(OC)c2)c(-c2ccnc(Nc3ccc(N4CCN(C)CC4)c(Cl)c3)n2)s1                IC50        < 100 nM
1  CCNc1nc(-c2cc(C)cc(OC)c2)c(-c2ccnc(Nc3ccc(N4CCN(C)CC4)c(OC)c3)n2)s1                IC50        < 100 nM
2  CCNc1nc(-c2ccnc(OC)c2)c(-c2ccnc(Nc3ccc(OCCN4CCCC4)c(Cl)c3)n2)s1                IC50        < 100 nM
3  CCNc1nc(-c2cc(C)cc(OC)c2)c(-c2ccnc(Nc3ccc(OC4CCN(CCF)CC4)c(C)c3)n2)o1                IC50        < 100 nM
4  CCNc1nc(-c2cc(C)cc(OC)c2)c(-c2ccnc(Nc3ccc(N4CCOCC4)c(F)c3)n2)o1                IC50        < 100 nM

Attention now shifts to the item below.
Challenge: What measured IC50 goes with CCNc1nc(-c2cc(OC)cc(OC)c2)c(-c2ccnc(Nc3ccc(N4CCN5CCCCC5C4)c(F)c3)n2)s1 (stereo not shown) ?
Response given: < 100 nM
